The reported measurements were obtained from PubChem BioAssay.

Documented composite z-score across a set of compounds
# assayed-system: Neurogenic locus notch homolog protein 3 (Homo sapiens) (UniProt Q9UM47)
# Sequence (Q9UM47 whole entry, looked up): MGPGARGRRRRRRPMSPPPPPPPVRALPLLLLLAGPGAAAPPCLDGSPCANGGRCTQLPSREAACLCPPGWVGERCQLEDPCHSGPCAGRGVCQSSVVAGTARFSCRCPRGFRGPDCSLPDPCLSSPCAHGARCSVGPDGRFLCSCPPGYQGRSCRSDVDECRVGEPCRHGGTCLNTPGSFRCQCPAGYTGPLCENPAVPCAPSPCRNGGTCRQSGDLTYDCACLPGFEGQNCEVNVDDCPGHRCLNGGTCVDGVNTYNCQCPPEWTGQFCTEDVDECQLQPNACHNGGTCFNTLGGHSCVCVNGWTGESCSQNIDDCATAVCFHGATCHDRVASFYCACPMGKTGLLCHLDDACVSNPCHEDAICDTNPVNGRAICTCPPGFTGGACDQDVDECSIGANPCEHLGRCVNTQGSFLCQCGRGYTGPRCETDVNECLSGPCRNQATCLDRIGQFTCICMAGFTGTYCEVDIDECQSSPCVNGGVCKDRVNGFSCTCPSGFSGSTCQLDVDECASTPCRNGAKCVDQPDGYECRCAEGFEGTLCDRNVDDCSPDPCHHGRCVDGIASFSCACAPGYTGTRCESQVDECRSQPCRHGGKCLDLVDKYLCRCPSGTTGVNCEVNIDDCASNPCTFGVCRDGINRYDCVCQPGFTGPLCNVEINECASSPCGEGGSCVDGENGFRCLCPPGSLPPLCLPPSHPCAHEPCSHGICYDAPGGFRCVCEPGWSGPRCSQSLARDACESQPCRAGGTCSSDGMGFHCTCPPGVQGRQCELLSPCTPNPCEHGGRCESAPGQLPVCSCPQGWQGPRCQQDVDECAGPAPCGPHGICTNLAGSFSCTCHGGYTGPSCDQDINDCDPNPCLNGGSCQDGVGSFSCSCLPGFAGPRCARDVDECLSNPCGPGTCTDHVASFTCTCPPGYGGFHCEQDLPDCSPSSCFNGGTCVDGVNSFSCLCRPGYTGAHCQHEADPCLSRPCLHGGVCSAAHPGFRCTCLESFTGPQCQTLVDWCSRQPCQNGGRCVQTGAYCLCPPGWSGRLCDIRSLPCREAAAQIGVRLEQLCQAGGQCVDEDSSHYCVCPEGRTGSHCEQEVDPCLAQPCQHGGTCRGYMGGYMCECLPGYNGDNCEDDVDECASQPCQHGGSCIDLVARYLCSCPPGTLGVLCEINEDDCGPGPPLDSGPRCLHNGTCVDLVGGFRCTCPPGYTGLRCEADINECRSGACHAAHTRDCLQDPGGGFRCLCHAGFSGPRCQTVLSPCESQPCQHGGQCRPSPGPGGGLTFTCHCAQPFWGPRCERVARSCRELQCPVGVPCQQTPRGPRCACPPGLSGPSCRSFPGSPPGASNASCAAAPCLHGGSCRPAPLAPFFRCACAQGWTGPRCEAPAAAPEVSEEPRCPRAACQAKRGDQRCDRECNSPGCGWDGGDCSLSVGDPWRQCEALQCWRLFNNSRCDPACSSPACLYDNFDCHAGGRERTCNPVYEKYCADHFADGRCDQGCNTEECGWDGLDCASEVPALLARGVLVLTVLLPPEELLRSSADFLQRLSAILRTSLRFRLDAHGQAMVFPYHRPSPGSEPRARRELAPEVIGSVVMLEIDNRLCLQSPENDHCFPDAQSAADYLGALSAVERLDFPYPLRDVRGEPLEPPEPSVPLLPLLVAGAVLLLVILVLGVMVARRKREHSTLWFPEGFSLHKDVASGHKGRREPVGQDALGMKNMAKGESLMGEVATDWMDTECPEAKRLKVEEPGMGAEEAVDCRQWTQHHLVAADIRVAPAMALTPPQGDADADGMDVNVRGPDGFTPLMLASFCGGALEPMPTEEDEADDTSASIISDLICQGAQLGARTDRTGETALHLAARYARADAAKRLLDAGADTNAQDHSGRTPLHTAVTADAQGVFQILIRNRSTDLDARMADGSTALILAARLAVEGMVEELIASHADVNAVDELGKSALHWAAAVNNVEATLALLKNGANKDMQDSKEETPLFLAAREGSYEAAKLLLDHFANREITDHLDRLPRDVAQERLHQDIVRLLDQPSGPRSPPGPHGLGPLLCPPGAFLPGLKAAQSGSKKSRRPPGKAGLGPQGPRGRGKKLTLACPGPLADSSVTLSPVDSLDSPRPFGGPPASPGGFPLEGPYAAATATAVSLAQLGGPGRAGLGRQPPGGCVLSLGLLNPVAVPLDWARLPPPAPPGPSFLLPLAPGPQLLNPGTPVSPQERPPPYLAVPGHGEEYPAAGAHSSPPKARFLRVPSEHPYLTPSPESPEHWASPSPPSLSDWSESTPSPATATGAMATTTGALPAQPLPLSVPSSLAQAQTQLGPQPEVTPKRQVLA
# assay: NOTCH3 binders on small-molecule microarray, primary screen, biochemical, 635/667 nm fluorescence (AID 1096)
# particulars: NOTCH3 binding, 635 nm fluorescence, higher = more signal

Previously resolved entries follow.
compound: CC(=O)OC[C@H]1O[C@@H](ON=C(C)CCN2CCCc3nc(C)c(C)cc32)[C@H](OC(C)=O)[C@@H](OC(C)=O)[C@@H]1OC(C)=O
measure-name: composite z-score
measured: 1.11

compound: CCOC(=O)[C@H](CC(C)C)NC(=O)CCC1CC(OC(=O)NCc2cccc3ccccc23)CC2(CCCC(COC(=O)NCCOc3ccccc3)O2)O1 (stereo partly drawn)
measure-name: composite z-score
measured: 0.859

compound: Cc1cc2c(nc1C)CCCN2CC(O)CN1CCCc2nc(C)c(C)cc21
measure-name: composite z-score
measured: 0.625

compound: COc1cc(O)c(C(=O)C=Cc2ccc3c(c2)OCO3)c(OC)c1
measure-name: composite z-score
measured: 0.124

compound: CO[C@H]1COC(=O)CC=C[C@@H](C)[C@H](NS(=O)(=O)c2ccc(C)cc2)COC(=O)CCC[C@@H]1C
measure-name: composite z-score
measured: 0.77

Task: Find the recorded composite z-score belonging to CCCNC(=O)OC[C@H]1O[C@H](CCON=C(C)C)C=C[C@@H]1Oc1ccc(OC)cc1 and report it.
Output: -0.216

Task: Fill blank: measured composite z-score of the compound COC(=O)CC=C[C@@H](C)[C@@H](C=NO[C@H](C)c1cn([C@H](CO)Cc2ccccc2)nn1)NS(=O)(=O)c1ccc(C)cc1 is ____.
Output: -0.0329

Task: If you can, please state the reported composite z-score value of COC(=O)[C@H](C)NC(=O)CCC1CC(OC(=O)NCc2ccc3c(c2)OCO3)CC2(CCCC(COC(=O)NCC3CCCCC3)O2)O1 (stereo partly drawn) .
Output: 1.1

====

# assay: binders of probe aFGF10 on microarray, primary screen, stem cell growth factor project, biochemical, small-molecule microarray, fluorescence 635/667 (AID 1071);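 also: score merges 667 nm spot intensity and signal to noise from triplicate slides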
# particulars: higher = more signal
Quick reference for composite z-score among some compounds
Give only the figure.

Solved cases below.
compound: CC(C)[C@@H](OCc1ccccc1)[C@H](C)C=NOC[C@@H](O)COCc1ccco1
measure-name: composite z-score
measured: -0.416
//
compound: COC(=O)CC=C[C@@H](C)[C@@H](C=NOCC[C@@H]1C=C[C@H](OC(C)=O)[C@@H](COC(C)=O)O1)OC
measure-name: composite z-score
measured: 0.502
//
compound: CCOC(=O)[C@H](CC(C)C)NC(=O)CCC1CC(OC(=O)NCc2cccc3ccccc23)CC2(CCCC(COC(=O)NCCOC)O2)O1 (some centres not stated)
measure-name: composite z-score
measured: 0.482

Task: composite z-score for O=C1[C@H]2[C@H]3[C@H](O)[C@H](O)CC(=NOC[C@@H](O)COCc4ccco4)[C@H]3CC[C@H]2C(=O)N1c1ccc(F)cc1F ?
Output: 0.0434

Task: # composite z-score lookup, item CC(C)=CCCC(C)=CCON=C1C[C@@H](O)[C@@H](O)[C@@H]2[C@@H]3C(=O)N(C(C)(C)C)C(=O)[C@@H]3CC[C@@H]12
Output: 0.257

Task: GET /values?readout=composite z-score&item= COc1ccc(O[C@H]2C=C[C@@H](c3ccccc3)O[C@@H]2CON=C2[C@H]3CCn4c(=O)n(-c5ccccc5)c(=O)n4[C@H]3[C@H](O)[C@@H]3O[C@H]23)cc1
Output: 0.372

Task: Given the compound CON=C[C@@H](C)[C@H](OCc1ccccc1)C(C)C , what is its reported composite z-score?
Output: -0.0499

====

# assay: basal RPMI8226 viability, no added stimulus, profiling panel, cell-based, calcein-AM fluorescence, 48 h, PK04 Diversity Set (AID 1166);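 also: cells grown under basal conditions without added stimulus; test concentration not given here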
# particulars: RPMI8226 myeloma viability, higher = more signal
Labelling field: enter 1 if recorded z-score is less than 0.02. Enter -1 if it equals or exceeds that cut-off.

compound: C[C@H]1CC[C@H]2C(=O)O[C@H](COc3ccc(C(C)(C)C)cc3)CN2[C@@H]1c1ccc(Br)cc1
class-label: 1

compound: CC(C)CON=C1C[C@@H](O)[C@@H](O)[C@@H]2[C@@H]3C(=O)N(C(C)(C)C)C(=O)[C@@H]3CC[C@H]12
class-label: 1

compound: O=C(NN=C1C[C@@H](O)[C@@H](O)[C@@H]2[C@@H]3C(=O)N(C[C@@H]4CCCO4)C(=O)[C@@H]3CC[C@@H]12)OCc1ccccc1
class-label: -1

compound: CO[C@@H]1COC(=O)CC=C[C@@H](C)[C@@H]2C=C[C@H](O)[C@@H](COC(=O)CC=C[C@H]1C)O2
class-label: -1

compound: C=CC[C@@H]1C=C[C@H](ON=C(C)CCC(=O)OC[C@H]2O[C@H](C#Cc3ccccc3)C=C[C@@H]2Oc2ccc(C)cc2)[C@@H](CO)O1
class-label: 1

compound: COC(=O)[C@H](C)NC(=O)CCC1CC(OC(=O)NCc2ccc3c(c2)OCO3)CC2(CCCC(COC(=O)NCC(c3ccccc3)c3ccccc3)O2)O1 (stereo partly specified)
class-label: 1

Task: Consider the compound CO[C@H]1COC(=O)CC=C[C@H](C)[C@@H](OC)COC(=O)[C@@H](C)NC(=O)CC=C[C@@H]1C . Is its z-score strictly less than 0.02?
Output: -1

Task: Given the entry COc1cccc([C@H]2Oc3ccc(OC)cc3C(=NOC[C@@H](C)[C@H](OCc3ccccc3)C(C)C)[C@@H]2O)c1 , would its reported z-score be below 0.02?
Output: 1

Task: Given the entry Cn1c(=O)n2n(c1=O)[C@H]1[C@H](O)[C@@H]3O[C@@H]3C(=O)[C@H]1CC2 , would its reported z-score be below 0.02?
Output: -1

====

Catalogue of composite z-score values
# System: wheat germ agglutinin (Triticum aestivum), Alexa647-labelled
# assay: wheat germ agglutinin binders on compound microarrays, profiling panel, artefact control for SMM control-protein annotation, biochemical, small-molecule microarray, 635/667 nm fluorescence (AID 1140);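 also: score merges 667 nm feature emission with signal to noise over triplicate slides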
# particulars: WGA-A647 binding, 635 nm fluorescence, higher = more signal
Quick one: just the number, no unit, thanks!

compound: C[n+]1ccc(-c2ccc(CO)cc2)cc1
measured: 1.48

We now examine a further compound.
Task: Request the reported composite z-score associated with Cc1ccc(S(=O)(=O)NC(CCc2ccccc2)CC(=O)C(C)(C)C)cc1 (stereo not drawn)
Output: 0.693

====

# Test system: Sam68 (KHDRBS1)
# assay: Sam68 small-molecule binders, primary screen, biochemical, small-molecule microarray, 635 nm fluorescence (AID 1125);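 also: score merges 667 nm channel intensity with signal to noise over triplicate slides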
# particulars: small-molecule microarray binding, higher = more signal
measure-name: composite z-score
# answer = number (no unit)

compound: CC(=O)OC[C@H]1O[C@H](C#Cc2ccccc2)C=C[C@@H]1OC(C)=O
composite z-score: 0.182
//
compound: COC(=O)CC=C[C@@H](C)[C@@H](C=NO[C@@H](C)c1cc(-c2c(C)cc(C)cc2C)no1)NS(=O)(=O)c1ccc(C)cc1
composite z-score: -0.723
//
compound: CCOC(=O)NN=C1C[C@@H](O)[C@@H](O)[C@@H]2[C@@H]3C(=O)N(Cc4ccccc4)C(=O)[C@@H]3CC[C@H]12
composite z-score: -0.0882

Task: Name the recorded composite z-score for CCCCc1nc2c(c3c1C[C@H](C)OC3)CN(CCOc1ccccc1)CC2 .
Output: 1.06

Task: Which composite z-score is reported for this compound? CCOC(=O)[C@H](Cc1ccccc1)NC(=O)OC1CC(CCC2CC(CC)=NO2)OC2(CCCC(COC(=O)NCCC(C)C)O2)C1 (stereo not given in full)
Output: 0.676

Task: Quick check: composite z-score of COc1cccc([C@H]2Oc3ccc(OC)cc3C(=NOC(C)CN3CCCCc4nc(C)c(C)cc43)[C@@H]2O)c1 (stereo not given in full) ?
Output: 0.523

====

# assay: basal RPMI8226 mitochondrial membrane potential changes, profiling panel, cell-based, JC-1 fluorescence, 24 h, 100 nL compound (AID 1169); also: test concentration not given here
# particulars: RPMI8226 myeloma, JC-1 mitochondrial potential fluorescence, higher = more signal
measure-name: z-score
Would you mind answering with just the numeric figure?

Recorded z-score, per entry:
compound: CC[C@@H](c1ccccc1)n1c(=O)n2n(c1=O)[C@H]1[C@H](O)[C@@H]3O[C@@H]3C(=NOC[C@@H](O)COCc3ccco3)[C@H]1CC2
measured: -0.465
//
compound: O=c1n(Cc2cc3c(cc2Cl)OCO3)c(=O)n2n1CC[C@@H]1C(=NOC[C@@H](O)COCc3ccco3)[C@H]3O[C@H]3[C@@H](O)[C@@H]12
measured: 0.0236

Pending compound:
Task: Which z-score is reported for this compound? CCOC(=O)[C@H](CC(C)C)NC(=O)CCC1CC(OC(=O)NCCc2ccc(F)cc2)CC2(CCCC(COC(=O)NCCOc3ccccc3)O2)O1 (stereo partly drawn)
Output: -0.462
